Every entry's value here was drawn from PubChem BioAssay AID330.

Test system: P388 leukemia ip, CD2F1 mice, survival T/C
Test: NCI In Vivo Anticancer Drug Screen. Data for tumor model P388 Leukemia (intraperitoneal) in CD2F1 (CDF1) mice
Conditions: endpoint: median survival time; dose: 6.25 mg/kg/injection; schedule: Q01DX005 (ip); vehicle: saline with Tween-80; higher = longer survival
Toxic doses and inconclusive results are not listed.
ENDPOINT NAME: T/C

Field: example entries. Status: answers known.
| MOLECULE | T/C |
| --- | --- |
| O=C(NC1CCC(CC2CCC(NC(=O)C34CC5CC(CC(C5)C3)C4)CC2)CC1)C12CC3CC(CC(C3)C1)C2 (stereo not given) | 89 % of control |
| COc1cc(-c2ccc(N=Nc3c(O)c(C(=O)Nc4ccccc4OC)cc4ccccc34)c(OC)c2)ccc1N=Nc1c(O)c(C(=O)Nc2ccccc2OC)cc2ccccc12 | 90 % of control |
| N#CN(Cc1ccccc1)Cc1ccccc1.[I][Sn]([c]1ccccc1)([c]1ccccc1)[c]1ccccc1 | 94 % of control |
| CC(C)=CCC(OC(=O)CC(C)C)C1=CC(=O)c2c(O)ccc(O)c2C1=O (stereo not given) | 94 % of control |

Now look at this one.
-- ask Reported T/C for "CCN(CC)CC.COC(=O)NC#N.[CH-]1CCCCC1.[CH-]1CCCCC1.[CH-]1CCCCC1.[Cl-].[Sn+4]" : what is it?
-- reply 98 % of control

###

T/C values by entry
Tested on: P388 leukemia ip, CD2F1 mice, survival T/C
Assay: NCI In Vivo Anticancer Drug Screen. Data for tumor model P388 Leukemia (intraperitoneal) in CD2F1 (CDF1) mice
Settings: endpoint: median survival time; dose: 50.0 mg/kg/injection; schedule: Q01DX009 (ip); vehicle: Klucel (hydroxypropylcellulose) (HPC); higher = longer survival
Toxic doses and inconclusive results are not listed.

Field: example entries. Status: answers known.
| MOLECULE | T/C |
| --- | --- |
| CCOC(=O)N1CC2C=CC1C(C(=O)OC)=C2C(=O)OC (stereo unspecified) | 109 % of control |
| CC(=O)OC1=CC(=O)N(C(=O)c2ccccc2)C1 | 105 % of control |
| CC(=O)Nc1ccc(C(=O)O)c([N+](=O)[O-])c1 | 107 % of control |
| CCOC1N=C(c2ccccc2)c2cc(Cl)ccc2NC1=O (stereo unspecified) | 101 % of control |
| CCOC(=O)C1=C(C)O/C(=C/c2ccccc2)C1=O | 112 % of control |

-- ask Test system P388 leukemia ip, CD2F1 mice, survival T/C; read-out T/C; what value for "CCCCCCCC(=O)Nc1ncc([N+](=O)[O-])s1" ?
-- reply 106 % of control

-- ask Test system P388 leukemia ip, CD2F1 mice, survival T/C; read-out T/C; what value for O=C(Nc1ccccc1)C1C(=O)C(=O)N(c2ccccc2)C1=O (stereo unspecified) ?
-- reply 107 % of control

-- ask Test system P388 leukemia ip, CD2F1 mice, survival T/C; read-out T/C; what value for "c1ccc(C2c3ccccc3C(c3ccccc3)(c3ccccc3)c3ccccc32)cc1" ?
-- reply 94 % of control

-- ask Test system P388 leukemia ip, CD2F1 mice, survival T/C; read-out T/C; what value for CC(Cl)C(=O)c1ccc(N)cc1 (stereo unspecified) ?
-- reply 99 % of control

-- ask Test system P388 leukemia ip, CD2F1 mice, survival T/C; read-out T/C; what value for CC(=O)C1C(=O)C(=O)N(Cc2ccccc2)C1=O (stereo unspecified) ?
-- reply 96 % of control

-- ask Test system P388 leukemia ip, CD2F1 mice, survival T/C; read-out T/C; what value for "O=C(Nc1nccs1)Nc1cc(F)ccc1F" ?
-- reply 90 % of control

-- ask Test system P388 leukemia ip, CD2F1 mice, survival T/C; read-out T/C; what value for "FC(F)(F)c1ccccc1N=Cc1ccc(C=Nc2ccccc2C(F)(F)F)cc1" ?
-- reply 98 % of control

-- ask Test system P388 leukemia ip, CD2F1 mice, survival T/C; read-out T/C; what value for "CCOC(=O)Nc1c(C)cc(C)cc1C" ?
-- reply 100 % of control

-- ask Test system P388 leukemia ip, CD2F1 mice, survival T/C; read-out T/C; what value for "CSc1cccc(NC(=O)Nc2onc(C)c2C)c1" ?
-- reply 91 % of control

-- ask Test system P388 leukemia ip, CD2F1 mice, survival T/C; read-out T/C; what value for "CCN(CC)C(=O)c1nc(-c2cccc3ccccc23)no1" ?
-- reply 100 % of control

-- ask Test system P388 leukemia ip, CD2F1 mice, survival T/C; read-out T/C; what value for "O=C(CCl)NC1(C(=O)O)CCCC1" ?
-- reply 94 % of control
